Attribute: Oxygen Uptake
System: Strain WW2 whole cells
assay-comment: Whole cell oxygen uptake with indole and related substrates (Clark electrode oxygraph)
Assay type: cell-based, Pseudomonas putida
test-context: substrate 0.6 mM; whole cells 4.5 h after indole induction; corrected for uptake without substrate

>  <compound>
Fc1ccc2[nH]ccc2c1

>  <Oxygen Uptake [O2 %/min/ODU]>
5.9

$$$$
>  <compound>
c1ccc2ccccc2c1

>  <Oxygen Uptake [O2 %/min/ODU]>
1.1

$$$$
>  <compound>
c1ccc2occc2c1

>  <Oxygen Uptake [O2 %/min/ODU]>
3.5

$$$$
>  <compound>
Cc1cccc2cc[nH]c12

>  <Oxygen Uptake [O2 %/min/ODU]>
4.6

$$$$
>  <compound>
Nc1ccccc1C(=O)O [Anthranilate, Anthranilic acid]

>  <Oxygen Uptake [O2 %/min/ODU]>
0.6

$$$$

###

Tested on: indole oxidase
assay-comment: Cell-free oxygen uptake in WW2 indole-induced cell extract
Format: biochemical, Pseudomonas putida
test-context: substrate 0.3 mM; indole = 100%
One threshold, 20%, splits the recorded Relative % (oxygen uptake rate) values: lower ones are yes (1), equal or higher ones are no (0).

>  <query-smiles>
c1ccc2sccc2c1

>  <class-assignment>
yes (1)

$$$$
>  <query-smiles>
Clc1cccc2[nH]ccc12

>  <class-assignment>
yes (1)

$$$$
>  <query-smiles>
Oc1ccc2[nH]ccc2c1

>  <class-assignment>
no (0)

$$$$
>  <query-smiles>
O=C1Nc2ccccc2C1=O

>  <class-assignment>
yes (1)

$$$$
>  <query-smiles>
Fc1ccc2[nH]ccc2c1

>  <class-assignment>
no (0)

$$$$
>  <query-smiles>
Clc1ccc2cc[nH]c2c1

>  <class-assignment>
no (0)

$$$$
